experiment: Plasma pharmacokinetics of BI 187004 after single oral doses (LC–MS/MS); conditions: male, human, plasma, po, 240 mg, BI 187004 plasma concentrations, Max, 240 mg single oral, planned time 12 h

{"compound": "N#Cc1ccc2c(c1)[C@H]1CCCN(C(=O)c3ccc4[nH]cnc4c3)[C@H]1C2 [BI 187004]", "concentration at 12 h / µM": 3.9}

###

experiment: Plasma pharmacokinetics of BI 187004 after single oral doses (LC–MS/MS); conditions: male, human, plasma, po, 40 mg, BI 187004 plasma concentrations, 40 mg single oral, planned time 2.5 h, Median

{"compound": "N#Cc1ccc2c(c1)[C@H]1CCCN(C(=O)c3ccc4[nH]cnc4c3)[C@H]1C2 [BI 187004]", "concentration at 2.5 h (nM)": 1870}

###

assay: Plasma pharmacokinetics of BI 187004 after single oral doses (LC–MS/MS); conditions: male, human, plasma, po, 80 mg, BI 187004 plasma concentrations, 80 mg single oral, planned time 2 h, gMean

{"compound": "N#Cc1ccc2c(c1)[C@H]1CCCN(C(=O)c3ccc4[nH]cnc4c3)[C@H]1C2 [BI 187004]", "concentration at 2 h": "2130 nM"}

###

assay: Plasma pharmacokinetics of BI 187004 after single oral doses (LC–MS/MS); conditions: male, human, plasma, po, 80 mg, BI 187004 plasma concentrations, 80 mg single oral, planned time 0.5 h, Mean

{"smiles.input": "N#Cc1ccc2c(c1)[C@H]1CCCN(C(=O)c3ccc4[nH]cnc4c3)[C@H]1C2", "unit.of.measure": "µM", "concentration at 0.5 h": 1.78}

###

assay: Plasma pharmacokinetics of BI 187004 after single oral doses (LC–MS/MS); conditions: male, human, plasma, po, 360 mg, BI 187004 plasma concentrations, Max, 360 mg single oral, planned time 1.5 h
endpoint: concentration at 1.5 h (µM)

{"compound": "N#Cc1ccc2c(c1)[C@H]1CCCN(C(=O)c3ccc4[nH]cnc4c3)[C@H]1C2 [BI 187004]", "unit.of.measure": "µM", "reported": 15.9}

###

experiment: Plasma pharmacokinetics of BI 187004 after single oral doses (LC–MS/MS); details: male, human, plasma, po, 160 mg, BI 187004 plasma concentrations, 160 mg single oral, planned time 12 h, Min

{"smiles.input": "N#Cc1ccc2c(c1)[C@H]1CCCN(C(=O)c3ccc4[nH]cnc4c3)[C@H]1C2", "concentration at 12 h": "2710 nM"}

###

assay: Plasma pharmacokinetics of BI 187004 after single oral doses (LC–MS/MS); conditions: male, human, plasma, po, 240 mg, BI 187004 plasma concentrations, Min, 240 mg single oral, planned time 72 h
endpoint: concentration at 72 h (nM)

{"compound": "N#Cc1ccc2c(c1)[C@H]1CCCN(C(=O)c3ccc4[nH]cnc4c3)[C@H]1C2 [BI 187004]", "unit.of.measure": "nM", "reported": 54.1}

###

experiment: Plasma pharmacokinetics of BI 187004 after single oral doses (LC–MS/MS); conditions: male, human, plasma, po, 360 mg, BI 187004 plasma concentrations, Max, 360 mg single oral, planned time 0.5 h
endpoint: concentration at 0.5 h

{"compound": "N#Cc1ccc2c(c1)[C@H]1CCCN(C(=O)c3ccc4[nH]cnc4c3)[C@H]1C2 [BI 187004]", "reported": "16.8 µM"}

###

assay: Plasma pharmacokinetics of BI 187004 after single oral doses (LC–MS/MS); details: male, human, plasma, po, 40 mg, BI 187004 plasma concentrations, 40 mg single oral, planned time 2 h, Median
endpoint: concentration at 2 h (nM)

{"smiles.input": "N#Cc1ccc2c(c1)[C@H]1CCCN(C(=O)c3ccc4[nH]cnc4c3)[C@H]1C2", "endpoint": "concentration at 2 h", "reported": 1860}

###

test: Plasma pharmacokinetics of BI 187004 after single oral doses (LC–MS/MS); conditions: male, human, plasma, po, 160 mg, BI 187004 plasma concentrations, 160 mg single oral, planned time 48 h, Median
endpoint: concentration at 48 h (nM)

{"smiles.input": "N#Cc1ccc2c(c1)[C@H]1CCCN(C(=O)c3ccc4[nH]cnc4c3)[C@H]1C2", "endpoint": "concentration at 48 h", "reported": 352}

###

assay: BI 187004 concentration in subcutaneous adipose tissue biopsies (LC–MS/MS); assay type: in vivo, human; conditions: male, human, subcutaneous adipose tissue / plasma, oral; 240 mg single dose; 24 h; read-out: AT:plasma ratio (range) 24 h
endpoint: Kp at 24 h

{"compound": "N#Cc1ccc2c(c1)[C@H]1CCCN(C(=O)c3ccc4[nH]cnc4c3)[C@H]1C2 [BI 187004]", "endpoint": "Kp at 24 h", "reported": 9.96}

###

test: Plasma pharmacokinetics of BI 187004 after single oral doses (LC–MS/MS); conditions: male, human, plasma, po, 240 mg, BI 187004 plasma concentrations, Max, 240 mg single oral, planned time 96 h

{"compound": "N#Cc1ccc2c(c1)[C@H]1CCCN(C(=O)c3ccc4[nH]cnc4c3)[C@H]1C2 [BI 187004]", "unit.of.measure": "nM", "concentration at 96 h": 181}

###

experiment: Plasma pharmacokinetics of BI 187004 after single oral doses (LC–MS/MS); conditions: male, human, plasma, po, 160 mg, BI 187004 plasma concentrations, 160 mg single oral, planned time 96 h, Min

{"smiles.input": "N#Cc1ccc2c(c1)[C@H]1CCCN(C(=O)c3ccc4[nH]cnc4c3)[C@H]1C2", "concentration at 96 h": "0.028 µM"}

###

test: Plasma pharmacokinetics of BI 187004 after single oral doses (LC–MS/MS); conditions: male, human, plasma, po, 20 mg, BI 187004 plasma concentrations, 20 mg single oral, planned time 0.5 h, Max
endpoint: concentration at 0.5 h (nM)

{"compound": "N#Cc1ccc2c(c1)[C@H]1CCCN(C(=O)c3ccc4[nH]cnc4c3)[C@H]1C2 [BI 187004]", "reported": 1050}

###

assay: Plasma pharmacokinetics of BI 187004 after single oral doses (LC–MS/MS); conditions: male, human, plasma, po, 240 mg, BI 187004 plasma concentrations, Mean, 240 mg single oral, planned time 72 h
endpoint: concentration at 72 h (nM)

{"molecule": "N#Cc1ccc2c(c1)[C@H]1CCCN(C(=O)c3ccc4[nH]cnc4c3)[C@H]1C2 [BI 187004]", "endpoint": "concentration at 72 h", "unit.of.measure": "nM", "reported": 157}

###

experiment: Plasma pharmacokinetics of BI 187004 after single oral doses (LC–MS/MS); details: male, human, plasma, po, 2.5 mg, Plasma concentration Mean, 2.5 mg single oral; 1 h
endpoint: concentration at 1 h (nM)

{"compound": "N#Cc1ccc2c(c1)[C@H]1CCCN(C(=O)c3ccc4[nH]cnc4c3)[C@H]1C2 [BI 187004]", "reported": 13.3}

###

assay: Plasma pharmacokinetics of BI 187004 after single oral doses (LC–MS/MS); details: male, human, plasma, po, 160 mg, BI 187004 plasma concentrations, 160 mg single oral, planned time 12 h, individual subjects
endpoint: concentration at 12 h (nM)

{"smiles.input": "N#Cc1ccc2c(c1)[C@H]1CCCN(C(=O)c3ccc4[nH]cnc4c3)[C@H]1C2", "reported": 2710}

###

assay: Plasma pharmacokinetics of BI 187004 after single oral doses (LC–MS/MS); details: male, human, plasma, po, 40 mg, BI 187004 plasma concentrations, 40 mg single oral, planned time 72 h, Mean

{"compound": "N#Cc1ccc2c(c1)[C@H]1CCCN(C(=O)c3ccc4[nH]cnc4c3)[C@H]1C2 [BI 187004]", "concentration at 72 h (nM)": 32}

###

test: Plasma pharmacokinetics of BI 187004 after single oral doses (LC–MS/MS); settings: male, human, plasma, po, 10 mg, Plasma concentration gMean, 10 mg single oral; 4 h

{"molecule": "N#Cc1ccc2c(c1)[C@H]1CCCN(C(=O)c3ccc4[nH]cnc4c3)[C@H]1C2 [BI 187004]", "unit.of.measure": "nM", "concentration at 4 h": 340}

###

experiment: Plasma pharmacokinetics of BI 187004 after single oral doses (LC–MS/MS); conditions: male, human, plasma, po, 160 mg, BI 187004 plasma concentrations, 160 mg single oral, planned time 96 h, Mean

{"compound": "N#Cc1ccc2c(c1)[C@H]1CCCN(C(=O)c3ccc4[nH]cnc4c3)[C@H]1C2 [BI 187004]", "concentration at 96 h": "33.8 nM"}

###

experiment: Plasma pharmacokinetics of BI 187004 after single oral doses (LC–MS/MS); settings: male, human, plasma, po, 80 mg, BI 187004 plasma concentrations, 80 mg single oral, planned time 4 h, Median

{"smiles.input": "N#Cc1ccc2c(c1)[C@H]1CCCN(C(=O)c3ccc4[nH]cnc4c3)[C@H]1C2", "concentration at 4 h / nM": 2460}
